Method: Pharmacokinetics in mice, single oral gavage dose
Type: in vivo, balb/c mice
Measurement setup: balb/c, mouse, in vivo, single oral dose 200 mg/kg, plasma
Observed property: MRT (h)
Write the answer as a number in h, unit excluded.

Q: Look at this compound and give its reported MRT. C[C@]12CC[C@H]3[C@@H](CC=C4C[C@@H](O)CC[C@@]43C)[C@@H]1CC[C@@H]2[C@](C)(O)CCc1cccnc1 [Oxy210]
Result: 3.5

====

Method: Pharmacokinetics in mice, single oral gavage dose
Format: in vivo, balb/c mice
Measurement setup: balb/c, mouse, in vivo, single oral dose 200 mg/kg, plasma, read-out: AUC (AUCinf)
Observed property: AUC(0-inf) (ng·h/mL)
# number only, unit ng·h/mL dropped from output

Q: Which measured AUC(0-inf) value corresponds to C[C@]12CC[C@H]3[C@@H](CC=C4C[C@@H](O)CC[C@@]43C)[C@@H]1CC[C@@H]2[C@](C)(O)CCc1cccnc1 ?
Result: 29300

====

System: SARS-CoV-2
Method: SARS-CoV-2 infection assay, viral RNA in culture supernatant by real-time RT-PCR
Assay type: cell-based, SARS-CoV-2 Wk-521 strain
Measurement setup: Severe acute respiratory syndrome coronavirus 2, read-out: IC90 (90% maximal inhibitory concentration); viral RNA in culture supernatant, 24 h post-inoculation, VeroE6/TMPRSS2 cells
Observed property: IC90 (µM)
Write the value in µM as a bare number.

CCC(CC)COC(=O)[C@H](C)N[P@](=O)(OC[C@H]1O[C@@](C#N)(c2ccc3c(N)ncnn23)[C@H](O)[C@@H]1O)Oc1ccccc1 [RDV, remdesivir, reference compound] :: 2.5
CC[C@@](O)(CCc1cccnc1)[C@H]1CC[C@H]2[C@@H]3CC[C@H]4C[C@@H](O)CC[C@]4(C)[C@H]3CC[C@]12C [Oxy232] :: 7.8

We next turn to a different compound, shown below.
Q: Field: IC90 (SARS-CoV-2). Entry: C[C@]12CC[C@H]3[C@@H](CC=C4C[C@@H](O)CC[C@@]43C)[C@@H]1CC[C@@H]2[C@](C)(O)CCc1cccnc1 [Oxy210]
Result: 8.6

====

Tested on: SARS-CoV-2
Method: Viral N protein by indirect immunofluorescence
Type: cell-based, SARS-CoV-2 Wk-521 strain
Measurement setup: 10 μM RDV, 30 μM cholesterol, 30 μM 7-KC, 10 μM Oxy133, 10 μM Oxy210
Observed property: effect on virus propagation / spread of infection, N protein (in words)

CCC(CC)COC(=O)[C@H](C)N[P@](=O)(OC[C@H]1O[C@@](C#N)(c2ccc3c(N)ncnn23)[C@H](O)[C@@H]1O)Oc1ccccc1 [RDV, remdesivir, reference compound] :: blocked
C[C@]12CC[C@H]3[C@@H](CC=C4C[C@@H](O)CC[C@@]43C)[C@@H]1CC[C@@H]2[C@](C)(O)CCc1cccnc1 :: blocked

====

Method: Pharmacokinetics in mice, single oral gavage dose
Format: in vivo, balb/c mice
Measurement setup: single oral dose 200 mg/kg, plasma, 200 mg/kg, read-out: Cmax (peak plasma concentration)
Observed property: Cmax

Q: So what does the record say about Cmax for C[C@]12CC[C@H]3[C@@H](CC=C4C[C@@H](O)CC[C@@]43C)[C@@H]1CC[C@@H]2[C@](C)(O)CCc1cccnc1 ?
Result: ~19 µM
